Values compiled from PubChem BioAssay AID1963858.

System: HOP-62 multicell spheroids with HUVEC/MSC, viability
Assay: Anticancer human tumor HOP-62 cell line growth inhibition [KRAS2];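 also: viability read after a week of compound exposure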;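 as to viability, T/C: 100% = DMSO vehicle-treated spheroids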
Conditions: second compound 0.1 µM; first compound 3.16 µM; stronger effect = lower value
testReadout: viability, T/C (%)
# number only, unit % dropped from output

Solved cases (2 shown):
| compound | readoutUnits | observedResult |
| --- | --- | --- |
| COc1cc2nccc(Oc3ccc(NC(=O)C4(C(=O)Nc5ccc(F)cc5)CC4)cc3)c2cc1OC + COc1cc2nc(C)nc(NC(C)c3cc(N)cc(C(F)(F)F)c3)c2cc1OC1CCOC1 | % | 63.8 |
| O=C(c1cc(Cc2n[nH]c(=O)c3ccccc23)ccc1F)N1CCN(C(=O)C2CC2)CC1 + C=CC(=O)N1CCN(c2nc(=O)n(-c3c(C)ccnc3C(C)C)c3nc(-c4c(O)cccc4F)c(F)cc23)C(C)C1 | % | 27.7 |

# input compound: CC1COCCN1c1cc(-c2ccnn2C)c2ccnc(-c3ccn[nH]3)c2n1 (stereo not drawn) + CC1OCC2(CCN(c3cnc(Sc4ccnc(N)c4Cl)c(N)n3)CC2)C1N ; wanted: its viability, T/C 13.7

====

System: HOP-62 multicell spheroids with HUVEC/MSC, viability
Assay: Anticancer human tumor HOP-62 cell line growth inhibition [KRAS2];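 also: viability read after a week of compound exposure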;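 as to viability, T/C: 100% = DMSO vehicle-treated spheroids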
Details: second compound 0.316 µM; first compound 0.316 µM; stronger effect = lower value
In this section, each of the compounds is paired with its reported viability, T/C.
# number only, unit % dropped from output

| compound | observedResult |
| --- | --- |
| CC1OCC2(CCN(c3cnc(Sc4ccnc(N)c4Cl)c(N)n3)CC2)C1N (stereo not given) + COc1cc2nc(C)nc(NC(C)c3cc(N)cc(C(F)(F)F)c3)c2cc1OC1CCOC1 | 76.2 |
| CCN1CCN(Cc2ccc(Nc3ncc(F)c(-c4cc(F)c5nc(C)n(C(C)C)c5c4)n3)nc2)CC1 + CC1OCC2(CCN(c3cnc(Sc4ccnc(N)c4Cl)c(N)n3)CC2)C1N | 49 |
| CC1COCCN1c1cc(-c2ccnn2C)c2ccnc(-c3ccn[nH]3)c2n1 (stereo not given) + C=CC(=O)N1CCN(c2nc(=O)n(-c3c(C)ccnc3C(C)C)c3nc(-c4c(O)cccc4F)c(F)cc23)C(C)C1 | 12.7 |

# input compound: COc1cc(Nc2ncc3c(n2)-c2ccc(Cl)cc2C(c2c(F)cccc2OC)=NC3)ccc1C(=O)O + C=CC(=O)N1CCN(c2nc(=O)n(-c3c(C)ccnc3C(C)C)c3nc(-c4c(O)cccc4F)c(F)cc23)C(C)C1 ; wanted: its viability, T/C 31.8

# input compound: CC(=O)OC12COC1CC(O)C1(C)C(=O)C(O)C3=C(C)C(OC(=O)C(O)C(NC(=O)OC(C)(C)C)c4ccccc4)CC(O)(C(OC(=O)c4ccccc4)C21)C3(C)C (stereo not given) + C=CC(=O)N1CCN(c2nc(=O)n(-c3c(C)ccnc3C(C)C)c3nc(-c4c(O)cccc4F)c(F)cc23)C(C)C1 ; wanted: its viability, T/C 27.3

# input compound: COc1cc(Nc2ncc3c(n2)-c2ccc(Cl)cc2C(c2c(F)cccc2OC)=NC3)ccc1C(=O)O + CNCc1ccccc1-c1csc(C(C)Nc2nc(C)nc3cc(OC)c(OC)cc23)c1 ; wanted: its viability, T/C 42.4

# input compound: COc1cc(Nc2ncc3c(n2)-c2ccc(Cl)cc2C(c2c(F)cccc2OC)=NC3)ccc1C(=O)O + COc1cc2nc(C)nc(NC(C)c3cc(N)cc(C(F)(F)F)c3)c2cc1OC1CCOC1 ; wanted: its viability, T/C 44

# input compound: CC(=O)OC12COC1CC(O)C1(C)C(=O)C(O)C3=C(C)C(OC(=O)C(O)C(NC(=O)OC(C)(C)C)c4ccccc4)CC(O)(C(OC(=O)c4ccccc4)C21)C3(C)C (stereo not given) + CC1OCC2(CCN(c3cnc(Sc4ccnc(N)c4Cl)c(N)n3)CC2)C1N ; wanted: its viability, T/C 29.8

# input compound: CC1(C)CCC(CN2CCN(c3ccc(C(=O)NS(=O)(=O)c4ccc(NCC5CCOCC5)c([N+](=O)[O-])c4)c(Oc4cnc5[nH]ccc5c4)c3)CC2)=C(c2ccc(Cl)cc2)C1 + CNCc1ccccc1-c1csc(C(C)Nc2nc(C)nc3cc(OC)c(OC)cc23)c1 ; wanted: its viability, T/C 76.5

# input compound: CC1(C)CCC(CN2CCN(c3ccc(C(=O)NS(=O)(=O)c4ccc(NCC5CCOCC5)c([N+](=O)[O-])c4)c(Oc4cnc5[nH]ccc5c4)c3)CC2)=C(c2ccc(Cl)cc2)C1 + C=CC(=O)N1CCN(c2nc(OCC3CCCN3C)nc3c2CCN(c2cccc4cccc(C)c24)C3)CC1CC#N ; wanted: its viability, T/C 26.4

====

Test system: HOP-62 multicell spheroids with HUVEC/MSC, viability
Assay: Anticancer human tumor HOP-62 cell line growth inhibition [KRAS2];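 also: viability read after a week of compound exposure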;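 as to viability, T/C: 100% = DMSO vehicle-treated spheroids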
Settings: second compound 1 µM; first compound 0.1 µM; stronger effect = lower value
In this section, each of the compounds is paired with its reported viability, T/C.

| compound | viability, T/C |
| --- | --- |
| O=C(c1cc(Cc2n[nH]c(=O)c3ccccc23)ccc1F)N1CCN(C(=O)C2CC2)CC1 + C=CC(=O)N1CCN(c2nc(OCC3CCCN3C)nc3c2CCN(c2cccc4cccc(C)c24)C3)CC1CC#N | 22.7% |

# input compound: Cn1ncnc1[C@H]1c2n[nH]c(=O)c3cc(F)cc(c23)N[C@@H]1c1ccc(F)cc1 + CNCc1ccccc1-c1csc(C(C)Nc2nc(C)nc3cc(OC)c(OC)cc23)c1 ; wanted: its viability, T/C 53.7%

# input compound: Cn1nccc1Nc1nccc(-c2cc3c(s2)C(C)(C)N(CCN2CCOCC2)C3=O)n1 + C=CC(=O)N1CCN(c2nc(OCC3CCCN3C)nc3c2CCN(c2cccc4cccc(C)c24)C3)CC1CC#N ; wanted: its viability, T/C 30.3%

====

In this section, each of the compounds is paired with its reported viability, T/C.
Test system: HOP-62 multicell spheroids with HUVEC/MSC, viability
Experiment: Anticancer human tumor HOP-62 cell line growth inhibition [KRAS2];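 also: viability read after a week of compound exposure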;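 as to viability, T/C: 100% = DMSO vehicle-treated spheroids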
Conditions: second compound 3.16 µM; first compound 0.000316 µM; stronger effect = lower value
# number only, unit % dropped from output

Solved cases (3 shown):
| compound | testReadout | observedResult |
| --- | --- | --- |
| CC(=O)Nc1cccc(-n2c(=O)n(C3CC3)c(=O)c3c(Nc4ccc(I)cc4F)n(C)c(=O)c(C)c32)c1 + C=CC(=O)N1CCN(c2nc(OCC3CCCN3C)nc3c2CCN(c2cccc4cccc(C)c24)C3)CC1CC#N | viability, T/C | 1.3 |
| CN(C)C/C=C/C(=O)Nc1cc2c(Nc3ccc(F)c(Cl)c3)ncnc2cc1O[C@H]1CCOC1 + C=CC(=O)N1CCN(c2nc(OCC3CCCN3C)nc3c2CCN(c2cccc4cccc(C)c24)C3)CC1CC#N | viability, T/C | 22.5 |
| CC(=O)Nc1cccc(-n2c(=O)n(C3CC3)c(=O)c3c(Nc4ccc(I)cc4F)n(C)c(=O)c(C)c32)c1 + C=CC(=O)N1CCN(c2nc(=O)n(-c3c(C)ccnc3C(C)C)c3nc(-c4c(O)cccc4F)c(F)cc23)C(C)C1 | viability, T/C | 50.6 |

# input compound: Cn1ncnc1[C@H]1c2n[nH]c(=O)c3cc(F)cc(c23)N[C@@H]1c1ccc(F)cc1 + C=CC(=O)N1CCN(c2nc(OCC3CCCN3C)nc3c2CCN(c2cccc4cccc(C)c24)C3)CC1CC#N ; wanted: its viability, T/C 0.61

====

Tested on: HOP-62 multicell spheroids with HUVEC/MSC, viability
Assay: Anticancer human tumor HOP-62 cell line growth inhibition [KRAS2];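 also: viability read after a week of compound exposure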
Conditions: curve of first compound; second compound 0.316 µM
Description: Multicellular complex tumor spheroid response to RAS pathway inhibitors in combination with a targeted agents in patient-derived cell lines with oncogenic KRAS variants from multiple cancer types A high-throughput screen of multi-cell type tumor spheroids was designed to identify active combinations of targeted small molecules and KRAS pathway inhibitors. […] Compounds. […] If the clinical Cmax for an agent had not been determined, the highest concentration tested was 10 microM. […]
In this section, each of the compounds is paired with its reported IC50.
# number only, unit nM dropped from output

| compound | IC50, nM |
| --- | --- |
| CC(C)NCC(C(=O)N1CCN(c2ncnc3c2C(C)CC3O)CC1)c1ccc(Cl)cc1 (stereo not given) + CC1OCC2(CCN(c3cnc(Sc4ccnc(N)c4Cl)c(N)n3)CC2)C1N | 235 |
| CC1(C)CCC(CN2CCN(c3ccc(C(=O)NS(=O)(=O)c4ccc(NCC5CCOCC5)c([N+](=O)[O-])c4)c(Oc4cnc5[nH]ccc5c4)c3)CC2)=C(c2ccc(Cl)cc2)C1 + COc1cc2nc(C)nc(NC(C)c3cc(N)cc(C(F)(F)F)c3)c2cc1OC1CCOC1 | 4580 |
| CC1COCCN1c1cc(-c2ccnn2C)c2ccnc(-c3ccn[nH]3)c2n1 (stereo not given) + CC1OCC2(CCN(c3cnc(Sc4ccnc(N)c4Cl)c(N)n3)CC2)C1N | 35.8 |
| CC(C)NCC(C(=O)N1CCN(c2ncnc3c2C(C)CC3O)CC1)c1ccc(Cl)cc1 (stereo not given) + COc1cc2nc(C)nc(NC(C)c3cc(N)cc(C(F)(F)F)c3)c2cc1OC1CCOC1 | 412 |

We next turn to a different compound, shown below.
Any idea what IC50 came out for CC(C)NCC(C(=O)N1CCN(c2ncnc3c2C(C)CC3O)CC1)c1ccc(Cl)cc1 (stereo not given) + C=CC(=O)N1CCN(c2nc(=O)n(-c3c(C)ccnc3C(C)C)c3nc(-c4c(O)cccc4F)c(F)cc23)C(C)C1 on HOP-62 multicell spheroids with HUVEC/MSC, viability? 70
